yeast fitness values by entry
B1: tRNA (parent)
chain: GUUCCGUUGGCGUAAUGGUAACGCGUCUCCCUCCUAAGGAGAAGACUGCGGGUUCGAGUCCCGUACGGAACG

Variants of: B1
PROTOCOL: yeast fitness relative to wild type (ratio to wild type); higher = fitter; tRNA-Arg(CCU), competitive growth, 37 C, YPD
Variants at the floor of the assay were thinned out.
READOUT LABEL: yeast fitness

> print(dat)
                              residue.codes  quantitative.result
1  GUUCCGUUGGCGUAAUCGUAAGGCGUCUCUCUCCUAAGGACAAGAUUGCGGGUUCGAGUCCCGUACGGAACG [G17C C22G C30U G41C C46U]                0.708
2  GUUCCGUUGGCGUAAUGGUAACGCGUCUCCCUCCUAAGGAGACGACAGCGGGUUCGACUCCCGUACGGAACG [A43C U47A G58C]                0.689
3  GUUCCGUUGGCGUAAUGGUAACGCGUCUCCCCCCUAAGGUGAAGACUGCGGGUUGGAGUCCCGUACGGAACG [U32C A40U C55G]                0.703
4  GUUCCGUUGGCGUAAUGGCAACGCGUCUCCCUCCUAAGGAGAAGACUGCGGGUUCGAGUCCAGUACGGAACG [U19C C62A]                0.713

meta.source: the RNAGym collection of RNA variant scans (doi:10.1126/science.aae0568)
